# targetOrSystem: Flpin-293-PDE4B2 cells (Homo sapiens, UniProt Q07343)
# Sequence (Q07343 1-564 isoform Q07343-2): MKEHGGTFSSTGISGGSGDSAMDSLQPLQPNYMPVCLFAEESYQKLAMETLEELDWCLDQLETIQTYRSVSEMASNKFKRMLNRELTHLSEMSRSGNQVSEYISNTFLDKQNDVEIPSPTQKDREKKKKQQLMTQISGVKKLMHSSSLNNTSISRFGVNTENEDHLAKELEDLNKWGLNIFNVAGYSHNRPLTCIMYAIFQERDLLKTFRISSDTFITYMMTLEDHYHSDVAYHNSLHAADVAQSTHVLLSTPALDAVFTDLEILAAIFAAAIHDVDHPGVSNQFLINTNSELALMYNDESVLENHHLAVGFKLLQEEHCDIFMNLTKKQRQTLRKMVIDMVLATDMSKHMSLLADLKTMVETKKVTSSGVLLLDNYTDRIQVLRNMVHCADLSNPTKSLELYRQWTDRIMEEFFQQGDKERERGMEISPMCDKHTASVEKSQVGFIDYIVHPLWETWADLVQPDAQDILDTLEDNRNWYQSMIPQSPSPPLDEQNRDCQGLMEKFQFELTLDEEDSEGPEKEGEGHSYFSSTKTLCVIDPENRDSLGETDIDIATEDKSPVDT
# methodDescription: cell-based
# conditionSummary: read-out: Cell Inhibition % @1 nM, 1 nM, Flpin-293-PDE4B2 cells
Measured inhibition at 0.001 µM by item
Entry rule: numbers only, all in %.

// worked examples, inhibition at 0.001 µM included
C[C@H]1Cc2cc(Cl)ccc2CN1c1nc2c(c(NC3(CO)CCC3)n1)[S+]([O-])CC2 (some centres unmarked): 5.4
CC1(O)CCN(c2ccc3c(c2)CCN(c2nc4c(c(NC5(CO)CCC5)n2)[S+]([O-])CC4)C3)C1 (centres unmarked): 6.9
C[C@@H]1CCCN1c1ccc2c(c1)CCN(c1nc3c(c(NC4(CO)CCC4)n1)[S+]([O-])CC3)C2 (some centres unmarked): 10.5

// compound [O-][S+]1CCc2nc(N3CCc4cc(N5CCCC5)ccc4C3)nc(NC3CCOCC3)c21 (centres unmarked) , assay Flpin-293-PDE4B2 cells (Homo sapiens, UniProt Q07343), inhibition at 0.001 µM value: 24.4

Readout inhibition at 0.001 µM for COc1ccc2c(c1)OC[C@H]1CN(c3nc4c(c(NC5(CO)CCC5)n3)[S+]([O-])CC4)CC[C@H]21 (some centres unmarked) , test system Flpin-293-PDE4B2 cells (Homo sapiens, UniProt Q07343), was 19

Bench note, Flpin-293-PDE4B2 cells (Homo sapiens, UniProt Q07343): entry CC(=O)N1CC[C@H](Nc2nc(N3CCc4cc(N5CCCC5)ccc4[C@@H]3C)nc3c2[S+]([O-])CC3)C1 (some centres unmarked) , its inhibition at 0.001 µM = 41.5

Tested system Flpin-293-PDE4B2 cells (Homo sapiens, UniProt Q07343); inhibition at 0.001 µM recorded for [O-][S+]1CCc2nc(N3CC[C@@H]4c5cc(Cl)ccc5OC[C@H]4C3)nc(NC3(CO)CCC3)c21 (some centres unmarked) was -0.82

Flpin-293-PDE4B2 cells (Homo sapiens, UniProt Q07343) data for [O-][S+]1CCc2nc(N3CCc4cc(N5CC6COCC6C5)ccc4C3)nc(NC3(CO)CCC3)c21 (centres unmarked) ; its inhibition at 0.001 µM: 26.5

Entry CN1CC2CN(c3ccc4c(c3)CCN(c3nc5c(c(NC6(CO)CCC6)n3)[S+]([O-])CC5)C4)CC2C1 (centres unmarked) : inhibition at 0.001 µM on Flpin-293-PDE4B2 cells (Homo sapiens, UniProt Q07343) = 9.95

The reported inhibition at 0.001 µM value, Flpin-293-PDE4B2 cells (Homo sapiens, UniProt Q07343), for CN1CCN(c2ccc3c(c2)CCN(c2nc4c(c(NC5(CO)CCC5)n2)[S+]([O-])CC4)C3)CC1 (centres unmarked) reads 1.97

Measured inhibition at 0.001 µM for this entry [O-][S+]1CCc2nc(N3CCc4cc(N5CC[C@@H](O)C5)ccc4C3)nc(NC3(CO)CCC3)c21 (some centres unmarked) on Flpin-293-PDE4B2 cells (Homo sapiens, UniProt Q07343): 11.8

Query C[C@H]1c2ccc(N3CCCC3)cc2CCN1c1nc2c(c(NC3CCOCC3)n1)[S+]([O-])CC2 (some centres unmarked) on Flpin-293-PDE4B2 cells (Homo sapiens, UniProt Q07343); inhibition at 0.001 µM returned: 28.5

Note to self: inhibition at 0.001 µM of [O-][S+]1CCc2nc(N3CCc4cc(N5CCCC5)ccc4C3)nc(NCCO)c21 (centres unmarked) with Flpin-293-PDE4B2 cells (Homo sapiens, UniProt Q07343) was 18.1

Entry N#CCc1ccc(Nc2nc(N3CCc4cc(Cl)ccc4C3)nc3c2[S+]([O-])CC3)cc1 (centres unmarked) , tested on Flpin-293-PDE4B2 cells (Homo sapiens, UniProt Q07343), has a reported inhibition at 0.001 µM of 4.95

Measured inhibition at 0.001 µM for this entry NC(=O)Nc1ccc(Nc2nc(N3CCc4cc(Cl)ccc4C3)nc3c2[S+]([O-])CC3)cc1 (centres unmarked) on Flpin-293-PDE4B2 cells (Homo sapiens, UniProt Q07343): 4.94

Form field inhibition at 0.001 µM for item CN1CC(Nc2nc(N3CCc4cc(Cl)ccc4C3)nc3c2[S+]([O-])CC3)CCC1=O (centres unmarked) on Flpin-293-PDE4B2 cells (Homo sapiens, UniProt Q07343): 48.1

Result for COc1nc2c(c3ccc(Cl)cc13)CCN(c1nc3c(c(NC4(CO)CCC4)n1)[S+]([O-])CC3)C2 (centres unmarked) , tested on Flpin-293-PDE4B2 cells (Homo sapiens, UniProt Q07343), inhibition at 0.001 µM: 4.18

Bench note, Flpin-293-PDE4B2 cells (Homo sapiens, UniProt Q07343): C[C@H]1c2ccc(N3CCC(F)(F)C3)cc2CCN1c1nc2c(c(NC3(CO)CCC3)n1)[S+]([O-])CC2 (some centres unmarked) , inhibition at 0.001 µM reads 10.7

Bench note, Flpin-293-PDE4B2 cells (Homo sapiens, UniProt Q07343): [O-][S+]1CCc2nc(N3CC[C@H]4c5cnc(Cl)cc5OC[C@@H]4C3)nc(NC3(CO)CCC3)c21 (some centres unmarked) , inhibition at 0.001 µM reads 5.32

Short answer on Flpin-293-PDE4B2 cells (Homo sapiens, UniProt Q07343) for C[C@H]1c2ccc(N3CCCC3)cc2CCN1c1nc2c(c(N[C@H]3CCC(=O)N(C)C3)n1)[S+]([O-])CC2 (some centres unmarked) , inhibition at 0.001 µM: 52.5
